target: Proton Pump (H^+/K^+-ATPase) (Sus scrofa); test: Inhibitory effects on proton pump (H^+/K^+-ATPase) activity; conditions: hog gastric vesicles; K^+ stimulated H^+/K^+-ATPase activity; 30 minutes at 37° C.
pIC50: −log10 of the molar value. Where a name gives a salt, the structure may show the parent alone.
Experimental readout: pIC50

Sample records with pIC50:
1) Cc1cccc(Cn2c(C)c(C)c3cc(CN4CCN(C)CC4)nc(N4CCc5ccccc5C4)c32)c1 [Example 878, hydrochloride] :: 6.82
2) CCn1c(C)c(C)c2ccnc(-c3ccc4ccccc4c3)c21 [Example 404, hydrochloride] :: 7.02
3) Cc1ccc(Cn2c(C)c(C)c3cc(C(=O)N4CCN(C)CC4)nc(N4CCc5ccccc5C4)c32)cc1 [Example 828, hydrochloride] :: 7.03

[1] Cc1nc(Cn2c(C)c(C)c3ccnc(N4CCc5ccccc5C4C)c32)cs1 (centres unmarked) [Example 559, hydrochloride]
[2] Cc1[nH]c2c(N3CCc4ccccc4C3)nc(C(=O)N3CCOCC3)cc2c1C
Enquiry: Looking only at measured pIC50, which entry is lower, 1 or 2 ? Write the label of whichever entry you select.
Return: 1
(1: 6.80, 2: 7.07)

[I] Cc1[nH]c2c(-c3ccc4ccccc4c3)nccc2c1C.Cl [Example 402, hydrochloride]
[II] Cc1c(C)n(Cc2ccccc2F)c2c(CN(C)c3ccc(F)cc3)nccc12 [Example 115, hydrochloride]
Enquiry: Looking only at measured pIC50, which entry is lower, I or II ? Write the label of whichever entry you select.
Return: II
(II: 6.85, I: 7.20)

###

target: Proton Pump (H^+/K^+-ATPase) (Sus scrofa, UniProt P19156); assay: Inhibitory effects on proton pump (H^+/K^+-ATPase) activity; conditions: hog gastric vesicles; K^+ stimulated H^+/K^+-ATPase activity; 30 minutes at 37° C.
Sequence (P19156 2-1034 limits assumed): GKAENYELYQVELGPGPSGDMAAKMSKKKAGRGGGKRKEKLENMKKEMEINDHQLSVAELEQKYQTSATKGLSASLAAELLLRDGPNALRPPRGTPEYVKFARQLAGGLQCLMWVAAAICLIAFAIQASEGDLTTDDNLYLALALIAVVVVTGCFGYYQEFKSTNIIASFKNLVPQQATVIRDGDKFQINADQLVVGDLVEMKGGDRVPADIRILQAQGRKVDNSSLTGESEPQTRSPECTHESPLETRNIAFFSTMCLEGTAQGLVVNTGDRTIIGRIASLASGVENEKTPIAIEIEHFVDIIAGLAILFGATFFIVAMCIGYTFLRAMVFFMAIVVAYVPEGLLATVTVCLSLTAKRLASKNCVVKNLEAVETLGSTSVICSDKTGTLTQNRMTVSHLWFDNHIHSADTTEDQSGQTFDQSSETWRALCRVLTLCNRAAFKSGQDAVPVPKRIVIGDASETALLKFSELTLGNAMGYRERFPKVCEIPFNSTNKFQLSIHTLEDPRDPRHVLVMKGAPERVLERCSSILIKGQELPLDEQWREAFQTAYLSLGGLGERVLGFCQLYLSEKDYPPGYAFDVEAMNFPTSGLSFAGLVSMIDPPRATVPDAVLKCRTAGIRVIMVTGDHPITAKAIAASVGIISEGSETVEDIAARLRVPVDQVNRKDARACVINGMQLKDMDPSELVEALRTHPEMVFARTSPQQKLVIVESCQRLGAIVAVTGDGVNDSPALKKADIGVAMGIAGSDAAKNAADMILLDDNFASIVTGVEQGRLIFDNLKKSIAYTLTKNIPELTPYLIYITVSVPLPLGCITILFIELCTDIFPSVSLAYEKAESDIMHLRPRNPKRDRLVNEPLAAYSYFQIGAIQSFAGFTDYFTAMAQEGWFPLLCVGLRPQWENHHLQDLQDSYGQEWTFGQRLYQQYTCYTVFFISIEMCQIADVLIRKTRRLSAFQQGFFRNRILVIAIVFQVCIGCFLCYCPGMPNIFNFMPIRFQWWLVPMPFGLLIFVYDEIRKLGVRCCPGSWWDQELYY
Sequence (P18434 whole entry partner): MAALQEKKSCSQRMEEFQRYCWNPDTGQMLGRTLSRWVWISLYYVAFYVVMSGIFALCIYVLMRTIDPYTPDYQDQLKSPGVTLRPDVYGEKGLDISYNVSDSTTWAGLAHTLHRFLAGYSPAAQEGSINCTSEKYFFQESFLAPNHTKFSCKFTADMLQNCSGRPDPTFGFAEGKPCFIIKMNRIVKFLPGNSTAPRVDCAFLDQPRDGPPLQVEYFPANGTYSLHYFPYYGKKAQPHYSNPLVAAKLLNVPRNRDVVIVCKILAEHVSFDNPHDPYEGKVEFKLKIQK
Structures can show the parent of a compound that is named as a salt.
Experimental readout: IC50 (nM)

[P] Cc1c(C)n(Cc2ccccc2)c2c(N3CCc4ccccc4C3)nc(C(=O)O)cc12 [Example 744, sodium]
[Q] C=Cc1ccc(-c2nccc3c(C)c(C)n(Cc4ccc(C)cc4)c23)cc1 [Example 244, hydrochloride]
Enquiry: Consider P and Q . Which of these has its IC50 at a higher number? Write the label of whichever entry you select.
Return: P
(P: 130 nM, Q: 90 nM)

The measured values listed here are drawn from patent US7662832B2.
